Source: the supplement of paper PMC7877785

# TEST PROTOCOL: self-splicing fitness, log relative to wild type (ln ratio); higher = more splicing; Tetrahymena group I intron in knt gene, E. coli kanamycin selection, DiMSum; sequences stand for … in CUCUCU…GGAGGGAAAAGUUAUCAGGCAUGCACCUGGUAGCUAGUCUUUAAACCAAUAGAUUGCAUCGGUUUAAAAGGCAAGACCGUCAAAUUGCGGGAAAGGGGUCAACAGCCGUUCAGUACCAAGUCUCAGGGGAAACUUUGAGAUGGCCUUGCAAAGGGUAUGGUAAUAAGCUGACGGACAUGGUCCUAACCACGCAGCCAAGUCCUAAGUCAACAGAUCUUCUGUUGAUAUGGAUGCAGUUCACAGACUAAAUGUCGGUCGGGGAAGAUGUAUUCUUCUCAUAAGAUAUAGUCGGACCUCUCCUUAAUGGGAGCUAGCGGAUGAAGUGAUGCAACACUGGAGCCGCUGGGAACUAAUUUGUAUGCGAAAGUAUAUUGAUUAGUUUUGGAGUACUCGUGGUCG;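 further: selection with 25 µg/mL kanamycin versus none on LB agar overnight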
# CONDITION INFO: 37 °C
Each record gets a class by self-splicing fitness (ln): A (below -2), B (-2 to below -0.7), C (-0.7 or more)

Category of ACGGAGCAAUAUUACGCCUC , please. B
